System: HOP-92 NSCLC
Test: NCI-60 one-dose screen, 48 h (100 = growth as untreated, 0 = no growth, -100 = all killed)
Conditions: 10 µM unless noted
The panel holds about 83,000 compounds, 20% with a hit somewhere; the sample as a whole holds those more often.
Classify by growth. Ranges: interval 1: < 40%; interval 2: ≥ 40% and < 80%; interval 3: ≥ 80%

Some entries whose results are on file:
molecule: Cc1ccc2oc(=O)cc(-c3sc(N4CCCCC4)nc3-c3ccccc3)c2c1
category: interval 3
//
molecule: COC(=O)[C@]12CC[C@@H](C(=O)/C=C/c3cccnc3)[C@@H]1[C@H]1CC[C@@H]3[C@@]4(C)C/C(=C/c5cccnc5)C(=O)C(C)(C)[C@@H]4CC[C@@]3(C)[C@]1(C)CC2
category: interval 1
//
molecule: Cc1ccc2c(c1)c(-c1nc(-c3c[nH]c4ncccc34)cs1)cn2C
category: interval 3
//
molecule: COc1cc(NC(C)CN(CC(C)C)C(C)C)c2ncccc2c1 (stereo not drawn)
category: interval 2

stdin: Which category fits this record: COc1ccccc1CNc1nc(N)nc2[nH]c3ccc(O)cc3c12
stdout: interval 1

stdin: Moving on to the next molecule: Cc1ccc(N(CC(=O)Nc2ccc(S(=O)(=O)NC3CCN(C)CC3)cc2)S(=O)(=O)c2ccc(Cl)cc2)cc1
stdout: interval 2

stdin: // query: COc1cc(-c2nc(-c3ccccc3)c(-c3ccccc3)[nH]2)cc(OC)c1O
stdout: interval 1

stdin: Also need Nc1c(C(=O)Nc2cccc3ccccc23)sc2nc3c(cc12)CCCC3 , thanks.
stdout: interval 2

stdin: Repeat with O=C(N/N=C\c1ccccc1O)C1CC1
stdout: interval 3

* * *

System: NCI-H460 lung
Experiment: NCI-60 one-dose screen, 48 h (100 = growth as untreated, 0 = no growth, -100 = all killed)
Conditions: 10 µM unless noted
This is part of a sample that, as a whole, favours compounds with a hit. Of some 83,000 tested, about 20% had one in any assay.
endpoint-label: growth (%)
Lab book: enter the figure in %, no units written.

smiles-input: COc1cccc(-c2nn(-c3ccccc3)cc2-c2ccnc(NCCCNS(=O)(=O)c3ccc(C(F)(F)F)cc3)c2)c1
scale-unit: %
growth: 25.4
--
smiles-input: CC1(n2nnnc2N2CCCN(c3ncccc3N)CC2)CCC1
scale-unit: %
growth: 99.5
--
smiles-input: CCN1CCN(C(=O)[C@@]2(C)CC[C@]3(C)CC[C@]4(C)C(=CC(=O)[C@@H]5[C@@]6(C)CC[C@H](OCCC#N)C(C)(C)[C@@H]6CC[C@]54C)[C@@H]3C2)CC1
scale-unit: %
growth: 99.9

stdin: If you can, please state the reported growth value of Cc1cc(N=O)cc(C(C)(C)C)c1O .
stdout: 101

stdin: Note, next up: CCN(CC)C(=O)CCCCCn1c2ccccc2c2c3c(c4c5ccccc5[nH]c4c21)C(=O)N(O)C3=O
stdout: 53.1

stdin: Again, but for Cc1nn(-c2ccc(Br)cc2)c2nc3[nH]c(=O)[nH]c(=O)c3nc12
stdout: 108

stdin: Thanks! And CCN(CC)c1ccc(/C=C/c2cc(C)c3ccccc3n2)cc1 ?
stdout: 43

stdin: Then this compound: O=C1NC(=Nc2ccc(S(=O)(=O)Nc3nccs3)cc2)S/C1=C\c1coc2ccccc2c1=O
stdout: 101

stdin: Another compound: COc1ccc2nc(-c3cc(-c4cc(OC)c(OC)c(OC)c4)n[nH]3)[nH]c2c1
stdout: 25.2

* * *

Test system: SK-MEL-2 melanoma
Assay: NCI-60 one-dose screen, 48 h
Settings: 10 µM unless noted
Compounds without any hit were thinned out: in the full panel of roughly 83,000, 20% have a hit. The source made the active and inactive calls. The calls were made as follows: active = growth percent below 10; inactive = the rest.
Hi! Could you answer with just one of these? active, inactive

molecule: O=c1c2sc3ncc(Br)cc3c2ncn1-c1cccc(Cl)c1
category: inactive
//
molecule: O=S(=O)(NCCNc1cc(-c2cn(-c3ccccc3)nc2-c2cccc(O)c2)ccn1)c1ccc(F)cc1
category: inactive
//
molecule: C[C@H]1[C@H]2C3=CC[C@@H]4[C@@]5(C)C/C(=C/c6ccco6)C(=O)C(C)(C)[C@@H]5CC[C@@]4(C)[C@]3(C)CC[C@@]2(C(=O)N2CCOCC2)CC[C@@H]1C
category: inactive
//
molecule: CC1(C)NC2=C(C(Nc3cccnc3)N1)C(c1ccc([N+](=O)[O-])cc1)C(C(=O)c1ccc(N=[N+]=[N-])cc1)O2 (configuration not stated)
category: inactive
//
molecule: COc1cccc(-c2nn(-c3ccccc3)cc2-c2ccnc(NCCNS(=O)(=O)c3cccc(F)c3)c2)c1
category: inactive
//
molecule: CC1(C)CC[C@]2(CO)CC[C@]3(C)C(=CC[C@@H]4[C@@]5(C)CC[C@H](NCO)C(C)(C)[C@@H]5CC[C@]43C)[C@@H]2C1
category: active

Query molecule follows.
stdin: Please indicate how the test categorized O=C1CCC/C=C\C[C@H]2C=C(Cl)C(=O)/C2=C/C[C@H](CCCCC(F)(F)F)OC(=O)CCC/C=C\C[C@H]2C=C(Cl)C(=O)/C2=C/C[C@H](CCCCC(F)(F)F)O1 .
stdout: active

* * *

Tested on: SK-MEL-5 melanoma
Experiment: NCI-60 one-dose screen, 48 h (100 = growth as untreated, 0 = no growth, -100 = all killed)
Settings: 10 µM unless noted
This is part of a sample that, as a whole, favours compounds with a hit. Of some 83,000 tested, about 20% had one in any assay.
The entries below are paired with their reported growth.
The answer is to be given in %; state only the numeric part.

These solved cases illustrate the format of a correct answer.
smiles-input: COc1ccc2c(c1)c(-c1nc(-c3c[nH]c4ncccc34)cs1)cn2C
system-name: SK-MEL-5 melanoma
growth [%]: 79.4

smiles-input: O=C1c2cccc3cccc(c23)C(=O)N1CC#Cc1ccc2c3c(cccc13)C(=O)N(CCO)C2=O
system-name: SK-MEL-5 melanoma
growth [%]: 90.8

smiles-input: C/C(=N/NC(N)=S)C(=O)O
system-name: SK-MEL-5 melanoma
growth [%]: 102

stdin: So what's the measured growth for this one? O=C(/C=C/c1cccc2ccccc12)Nc1ncc(Cc2ccccc2)s1
stdout: 10.6

stdin: And Cn1cc(-c2csc(-c3cn(CCNC(=O)OC(C)(C)C)c4ccc(F)cc34)n2)c2cccnc21 ?
stdout: 23.6

stdin: // repeat for CN1CCN(c2nc(-c3cccc4ccccc34)nc3sc4c(c23)CCCCCC4)CC1 and report
stdout: 85.3

* * *

Test system: A498 renal
Test: NCI-60 one-dose screen, 48 h (100 = growth as untreated, 0 = no growth, -100 = all killed)
Details: 10 µM unless noted
The panel holds about 83,000 compounds, 20% with a hit somewhere; the sample as a whole holds those more often.
endpoint-label: growth (%)
Unit % implied. Number only.

Here is how some molecules turned out for growth.
smiles-input: COC(=O)CNc1nc(N(C)O)nc(N(C)O)n1
growth, %: 34.5
//
smiles-input: C/C(=N\Nc1cc(C)c2cc(C)ccc2n1)c1ccccn1
growth, %: 20.9
//
smiles-input: C(=C\c1c[nH]c2ccccc12)/c1ccc2ccccc2n1
growth, %: 120
//
smiles-input: Fc1ccc2c(c1)c(-c1nc(-c3c[nH]c4ncccc34)cs1)cn2CCCN1CCCCC1
growth, %: 77.8
//
smiles-input: Cc1nnc2nc(N)[nH]n2c1=O
growth, %: 118

stdin: Consider the molecule shown here: COc1ccc(NC(=O)c2ccoc2COc2ccccc2)cc1 What is its recorded growth?
stdout: 99.7

* * *

Parameter: growth. Scope: all listed entries.
System: T-47D breast
Assay: NCI-60 one-dose screen, 48 h (100 = growth as untreated, 0 = no growth, -100 = all killed)
Settings: 10 µM unless noted
The panel holds about 83,000 compounds, 20% with a hit somewhere; the sample as a whole holds those more often.
# value in %; strip the unit string

Answered examples (3):
compound: C[N+](C)(CCCCCC[N+](C)(C)C1c2ccccc2-c2ccccc21)C1c2ccccc2-c2ccccc21
scale-unit: %
growth: 108
//
compound: COc1cccc(-c2nn(-c3ccccc3)cc2-c2ccnc(NCCNS(=O)(=O)c3ccccc3)c2)c1
scale-unit: %
growth: 4.18
//
compound: CCN1CCN(C(=O)[C@@]2(C)CC[C@]3(C)CC[C@]4(C)C(=CC(=O)[C@@H]5[C@@]6(C)CC[C@H](OC7C[C@@H](O)[C@@H](O)C(C)O7)C(C)(C)[C@@H]6CC[C@]54C)[C@@H]3C2)CC1 (some centres undefined)
scale-unit: %
growth: 82.6

We now examine a further compound.
stdin: Value lookup for growth; key = NNC(=O)c1nc2ccccc2[nH]1
stdout: 89.8

* * *

Tested on: OVCAR-3 ovarian
Assay: NCI-60 one-dose screen, 48 h (100 = growth as untreated, 0 = no growth, -100 = all killed)
Conditions: 10 µM unless noted
About 83,000 compounds went through this panel and 20% of them were active in at least one assay; those are over-represented in the sample as a whole.
API: label(entry) gives met if the entry's growth is strictly smaller than 90%; on equality or larger values it gives not met.

stdin: State whether 90% exceeds growth recorded for CCCCCC1CCCCN1C(=O)OCC (stereo not given) .
stdout: not met

stdin: Another compound: O=C1C(=O)N(CCCCn2cc(-c3ccccc3)nn2)c2ccccc21
stdout: not met

stdin: Same question for N#C/C(=C\c1ccc(-c2ccc(Br)cc2)o1)c1nc(-c2ccco2)cs1 please.
stdout: not met

stdin: Let us now turn to C/C(=N\Nc1cc(C)c2cc(C)ccc2n1)c1ccccn1
stdout: met

stdin: Try O=[N+]([O-])c1cccc(/C=N\Nc2ccccc2)c1 next.
stdout: met

stdin: Likewise for CC1(C)NCCC[C@]2(C)[C@H]3CC[C@@H]4[C@H]5[C@H](C(=O)/C=C/c6ccccn6)CC[C@]5(CO)CC[C@@]4(C)[C@]3(C)CC[C@@H]12 ?
stdout: met
